Measured Target: hNGAL (Homo sapiens)
Construct: purchased R&D Systems
Assay Procedure: hNGAL-induced IL6 and Col I secretion in human cardiac fibroblasts (ELISA)
Format: cell-based
Set-up: concentration or dose not given beside the values
Measurement Conditions: Table S4, second generation compounds and parents; human cardiac fibroblasts
Observed Property: % inhibition versus hNGAL on IL-6 secretion (%)

Some solved entries appear below for comparison.
>>> reported_measurement("CC(=O)c1cccc(S(=O)(=O)NCc2ccccc2-c2ccc(CN(C)C)cc2)c1 [GPZ642292]")
55.9
>>> reported_measurement("CCN1CCN(Cc2ccccc2CNS(=O)(=O)c2cccc(C(C)=O)c2)CC1 [GPZ913629]")
35.9
>>> reported_measurement("CC(=O)c1cccc(S(=O)(=O)NCc2ccccc2Cn2cccn2)c1 [GPZ505884]")
42.8
>>> reported_measurement("CCS(=O)(=O)c1ccc2oc(SCc3cn4c(C)cc(C)nc4n3)nc2c1 [GPZ058225]")
50.4
>>> reported_measurement("N#Cc1cccc(S(=O)(=O)NCc2cccc(-n3cccn3)c2)c1 [GPZ778195]")
39.3

(A) Cc1cc(C)n2cc(CSc3nc4ccccc4[nH]3)nc2n1 [GPZ743042]
(B) CC(=O)c1ccc(S(=O)(=O)Nc2ccccc2-n2cccn2)cc1 [GPZ478519]
Q. Kindly identify which of A and B has the larger recorded % inhibition versus hNGAL on IL-6 secretion value. Use the label to indicate which entry you chose.
A. B
(B: 52.4%, A: 35.2%)

* * *

Measured Target: hNGAL (Homo sapiens, UniProt P80188)
Construct: purchased R&D Systems
Sequence (P80188 21-198): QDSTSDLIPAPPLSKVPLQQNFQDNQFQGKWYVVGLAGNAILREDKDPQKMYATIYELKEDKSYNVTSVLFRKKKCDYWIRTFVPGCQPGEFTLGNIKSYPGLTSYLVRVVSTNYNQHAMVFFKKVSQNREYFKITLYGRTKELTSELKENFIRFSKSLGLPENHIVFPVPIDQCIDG
Assay Procedure: hNGAL-induced IL6 and Col I secretion in human cardiac fibroblasts (ELISA)
Format: cell-based
Measurement Conditions: Table S4, second generation compounds and parents; hNGAL-treated human cardiac fibroblasts; Control 1.00, NGAL 1.45; mean ± SEM
Method: Primary human cardiac fibroblasts (HCF) were obtained from Promocell (Heidelberg, Germany) and maintained in Fibroblast Media 3 following manufacturer’s instructions (Promocell). Cells were used between passages 5 and 7. Cells were stimulated with recombinant hNGAL (500 ng/mL, R&D Systems) or with TGFβ (10 ng/mL, R&D Systems) for 24 h. […] IL6 and collagen type I concentrations were measured in cardiac tissue and cell supernatants by ELISA according to the manufacturer's instructions (R&D Systems).
Observed Property: IL-6 secretion

>>> reported_measurement("Cc1cc(C)n2cc(CSc3nc4ccccc4[nH]3)nc2n1 [GPZ743042]")
0.94
>>> reported_measurement("N#Cc1cccc(S(=O)(=O)NCc2cccc(-n3cccn3)c2)c1 [GPZ778195]")
0.88
>>> reported_measurement("O=C(Nc1nc2cc(F)c(F)cc2s1)c1cn2cccnc2n1 [GPZ278618]")
0.86
>>> reported_measurement("CCN1CCN(Cc2ccccc2CNS(=O)(=O)c2cccc(C(C)=O)c2)CC1 [GPZ913629]")
0.93
>>> reported_measurement("CC(=O)c1cccc(S(=O)(=O)NCc2ccccc2-c2ccsc2)c1 [GPZ863205]")
0.93
>>> reported_measurement("CC(=O)c1cccc(S(=O)(=O)NCc2ccccc2-c2ccc(CN(C)C)cc2)c1 [GPZ642292]")
0.64
>>> reported_measurement("CC(=O)c1cccc(S(=O)(=O)NCc2ccccc2-n2cccn2)c1 [GPZ614741]")
0.59
>>> reported_measurement("CC(=O)c1cccc(S(=O)(=O)NCc2ccccc2Cn2cccn2)c1 [GPZ505884]")
0.83
>>> reported_measurement("CC(=O)c1ccc(S(=O)(=O)Nc2ccccc2-n2cccn2)cc1 [GPZ478519]")
0.69
>>> reported_measurement("CCS(=O)(=O)c1ccc2oc(SCc3cn4c(C)cc(C)nc4n3)nc2c1 [GPZ058225]")
0.72

Where do these numbers come from? They come from paper PMC7844219.
